experiment: Half life in Beagle dog at 0.175 mg/kg, iv or 1 mg/kg, po administered via gavage by LC-MS/MS analysis; type: ADME, organism-based, Canis lupus familiaris; conditions: in vivo
assay_metric: half-life (h)
Number in h, nothing else.

query: Given the molecule `O=C(O)CNC(=O)c1c(O)c2c(n(Cc3ccc(C(F)(F)F)cc3)c1=O)COC2` , what is its reported half-life?
result: 6.2

---

test: Plasma clearance in Wistar Han rat at 1 mg/kg, iv or 2 mg/kg, po administered via gavage by LC-MS/MS analysis; assay type: ADME, organism-based
assay_metric: clearance (mL/min/kg)
Number in mL/min/kg, nothing else.

query: Given the compound `O=C(O)CNC(=O)c1c(O)c2c(n(Cc3ccc(C(F)(F)F)cc3)c1=O)COC2` , what is its reported clearance?
result: 11

---

experiment: Volume of distribution in Wistar Han rat at 1 mg/kg, iv or 2 mg/kg, po administered via gavage by LC-MS/MS analysis; format: ADME, organism-based; conditions: in vivo
assay_metric: Vd (L/kg)
Number in L/kg, nothing else.

query: Given the compound `O=C(O)CNC(=O)c1c(O)c2c(n(Cc3ccc(C(F)(F)F)cc3)c1=O)COC2` , what is its reported Vd?
result: 3.1

---

test: Half life in Wistar Han rat at 1 mg/kg, iv or 2 mg/kg, po administered via gavage by LC-MS/MS analysis; format: ADME, organism-based; conditions: in vivo
assay_metric: half-life (h)
Number in h, nothing else.

query: Given the compound `O=C(O)CNC(=O)c1c(O)c2c(n(Cc3ccc(C(F)(F)F)cc3)c1=O)COC2` , what is its reported half-life?
result: 7.3
